I'd appreciate it if you could supply inhibition at 1 µM values for the items below.
# testedOn: S. aureus GyrB ATPase (Staphylococcus aureus, UniProt P0A0K8)
# Sequence (P0AES4 whole entry): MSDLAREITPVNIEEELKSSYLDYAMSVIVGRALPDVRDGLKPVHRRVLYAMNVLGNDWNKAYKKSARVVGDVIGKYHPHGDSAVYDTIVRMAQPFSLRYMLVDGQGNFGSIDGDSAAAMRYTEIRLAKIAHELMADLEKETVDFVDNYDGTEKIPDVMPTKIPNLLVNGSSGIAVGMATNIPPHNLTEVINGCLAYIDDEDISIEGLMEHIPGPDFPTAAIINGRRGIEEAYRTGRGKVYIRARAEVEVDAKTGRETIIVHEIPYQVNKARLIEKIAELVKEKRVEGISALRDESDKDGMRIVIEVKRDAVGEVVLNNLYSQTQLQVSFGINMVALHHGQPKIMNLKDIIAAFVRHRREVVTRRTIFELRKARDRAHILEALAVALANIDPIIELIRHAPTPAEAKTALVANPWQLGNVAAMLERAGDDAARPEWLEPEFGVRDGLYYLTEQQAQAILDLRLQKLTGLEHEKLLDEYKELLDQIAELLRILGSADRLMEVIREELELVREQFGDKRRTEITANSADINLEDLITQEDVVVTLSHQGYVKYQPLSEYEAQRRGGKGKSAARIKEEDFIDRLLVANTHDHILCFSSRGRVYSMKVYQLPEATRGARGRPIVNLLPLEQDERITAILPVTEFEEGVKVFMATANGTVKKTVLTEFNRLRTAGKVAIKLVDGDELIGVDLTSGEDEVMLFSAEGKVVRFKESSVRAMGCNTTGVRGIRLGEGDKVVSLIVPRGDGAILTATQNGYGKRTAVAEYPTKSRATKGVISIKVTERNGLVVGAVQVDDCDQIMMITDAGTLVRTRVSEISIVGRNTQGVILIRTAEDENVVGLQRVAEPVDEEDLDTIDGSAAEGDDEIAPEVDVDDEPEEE
# Sequence (P0A0K8 whole entry): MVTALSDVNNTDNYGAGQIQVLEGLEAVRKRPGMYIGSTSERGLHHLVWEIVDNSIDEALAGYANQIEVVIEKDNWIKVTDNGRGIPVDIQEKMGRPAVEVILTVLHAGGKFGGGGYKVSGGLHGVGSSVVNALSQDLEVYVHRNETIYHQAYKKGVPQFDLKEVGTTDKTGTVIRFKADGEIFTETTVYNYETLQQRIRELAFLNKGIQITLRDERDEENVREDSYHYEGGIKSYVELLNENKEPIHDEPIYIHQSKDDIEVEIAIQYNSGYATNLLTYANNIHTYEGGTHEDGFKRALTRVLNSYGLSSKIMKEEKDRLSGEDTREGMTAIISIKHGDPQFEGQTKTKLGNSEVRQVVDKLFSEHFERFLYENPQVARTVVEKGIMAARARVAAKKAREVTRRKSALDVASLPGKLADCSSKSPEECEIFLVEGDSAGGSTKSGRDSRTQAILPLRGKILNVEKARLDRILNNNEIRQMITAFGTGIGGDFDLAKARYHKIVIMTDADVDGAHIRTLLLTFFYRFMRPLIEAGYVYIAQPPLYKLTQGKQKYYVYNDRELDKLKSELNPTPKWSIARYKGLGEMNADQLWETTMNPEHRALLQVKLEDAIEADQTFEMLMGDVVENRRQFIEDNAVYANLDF
# protocolSummary: S. aureus GyrB ATPase inhibition (ammonium molybdate/malachite green phosphate detection)
# Assay type: biochemical
# testContext: compound concentration of 1 μM (unless otherwise noted)
Give bare numbers, in %.

Solved cases (5 shown):
Cc1[nH]c(C(=O)N[C@@H]2CCN(c3nc(-c4ncnn4C)c(C(=O)O)s3)C[C@@H]2C)cc1Cl	112
CO[C@H]1CN(c2nc(-c3cnc(NCCN4CCN(C)CC4)cn3)c(C(=O)O)s2)CC[C@H]1NC(=O)c1[nH]c(C)c(Cl)c1Cl	112
CCO[C@H]1CN(c2nc(-c3cnc(NCCN4CCNC4=O)cn3)c(C(=O)O)s2)CC[C@H]1NC(=O)c1[nH]c(C)c(Cl)c1Cl	94
Cc1[nH]c(C(=O)N[C@@H]2CCN(c3nc(-c4cnc(NCCN5CCOCC5)cn4)c(C(=O)O)s3)C[C@@H]2C)c(Cl)c1Cl	101
CCO[C@H]1CN(c2nc(-c3cnccn3)c(C(=O)O)s2)CC[C@H]1NC(=O)c1[nH]c(C)c(Cl)c1C#N	98

Report inhibition at 1 µM for each item below.
1. COCCn1ccnc1-c1nc(N2CC[C@@H](NC(=O)c3[nH]c(C)c(Cl)c3C#N)[C@@H](C)C2)sc1C(=O)O
2. Cc1[nH]c(C(=O)N[C@@H]2CCN(c3nc(-c4cnccn4)c(C(=O)O)s3)C[C@@H]2C)c(Cl)c1Cl

-- reply
1: 102; 2: 119
